Target: JAK1 (aa 850-1154, catalytic domain, GST-tag) (Homo sapiens)
Construct: JAK1 (aa 850-1154) and TYK2 (aa 871-1187) are expressed with an N-terminally fused GST-tag; GST (N); purchased Carna Biosciences, Inc; host or cells: baculovirus expression system
Sequence (P23458 850-1154): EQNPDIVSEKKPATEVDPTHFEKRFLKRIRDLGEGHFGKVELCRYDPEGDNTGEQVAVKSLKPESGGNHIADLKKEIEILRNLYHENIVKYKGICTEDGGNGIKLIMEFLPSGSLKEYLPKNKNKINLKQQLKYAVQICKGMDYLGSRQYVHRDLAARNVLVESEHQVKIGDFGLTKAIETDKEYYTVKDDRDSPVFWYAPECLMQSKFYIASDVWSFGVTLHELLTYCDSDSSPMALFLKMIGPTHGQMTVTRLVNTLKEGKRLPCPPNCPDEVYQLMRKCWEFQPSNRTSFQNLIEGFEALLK
Experiment: JAK kinase assay (HTRF, phosphorylation of TK substrate-biotin), JAK1
Assay type: biochemical
Settings: HTRF assay, ATP at Km (7 μM); read-out: JAK1 kinase inhibitory activity (EC50 indicator)
quantity: EC50

Below: 2 compounds and their reported EC50.
>>> result("COc1cc(S(N)(=O)=O)ccc1C(=O)N1[C@@H]2CC[C@H]1CN(c1ncnc3[nH]ccc13)C2")
"< 100 nM"
>>> result("NS(=O)(=O)c1ccc(CCC(=O)N2CCN(c3ncnc4[nH]ccc34)CC23CC3)cc1")
"< 100 nM"

Take each entry in turn and give its EC50.
1. CS(=O)(=O)Nc1ccc(C(=O)N2CCN(c3ncnc4[nH]ccc34)CC23CC3)cc1
2. O=C(c1ccccc1)N1[C@@H]2CC[C@@H]1CN(c1ncnc3[nH]ccc13)C2
3. O=C(c1csc2ccccc12)N1[C@H]2CC[C@H]1CN(c1ncnc3[nH]ccc13)C2
4. CS(=O)(=O)c1ccc(CC(=O)N2CCN(c3ncnc4[nH]ccc34)CC23CC3)cc1
5. Cc1ccc2sc(C(=O)N3[C@@H]4CC[C@H]3CN(c3ncnc5[nH]ccc35)C4)cc2c1
6. Cc1ccc(C(=O)N2CCN(c3ccnc4[nH]ccc34)CC23CC3)s1
7. CCCNS(=O)(=O)c1ccc(C(=O)N2CCN(c3ncnc4[nH]ccc34)CC23CC3)cc1
8. O=C(c1ccccc1)N1CCN(c2ccnc3[nH]ccc23)CC12CC2

Output:
1: < 100 nM; 2: < 100 nM; 3: < 100 nM; 4: < 100 nM; 5: < 100 nM; 6: < 100 nM; 7: < 100 nM; 8: < 100 nM

---

Target: TYK2 (aa 871-1187, catalytic domain, GST-tag) (Homo sapiens)
Construct: JAK1 (aa 850-1154) and TYK2 (aa 871-1187) are expressed with an N-terminally fused GST-tag; GST (N); purchased Carna Biosciences, Inc; host or cells: baculovirus expression system
Sequence (P29597 871-1187): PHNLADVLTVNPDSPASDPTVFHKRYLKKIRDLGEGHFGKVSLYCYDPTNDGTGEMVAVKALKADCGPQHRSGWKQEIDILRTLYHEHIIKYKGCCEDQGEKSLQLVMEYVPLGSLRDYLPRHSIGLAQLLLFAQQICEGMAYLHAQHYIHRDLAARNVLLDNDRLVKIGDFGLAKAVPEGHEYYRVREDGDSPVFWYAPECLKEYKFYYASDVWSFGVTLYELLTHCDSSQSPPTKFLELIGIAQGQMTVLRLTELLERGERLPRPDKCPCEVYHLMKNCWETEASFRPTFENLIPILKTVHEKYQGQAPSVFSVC
Assay: JAK kinase assay (HTRF, phosphorylation of TK substrate-biotin), TYK2
Type: biochemical
Conditions: HTRF assay, ATP at Km (13 μM); read-out: TYK2 kinase inhibitory activity (EC50 indicator)
Would you kindly list EC50 for each of these molecules?

Below: 5 molecules and their reported EC50.
>>> result("O=C(c1cnccn1)N1CCN(c2ccnc3[nH]ccc23)CC12CC2")
"> 500 nM"
>>> result("COc1cnc2[nH]ccc2c1N1CCN(C(=O)c2cnccn2)C2(CC2)C1")
"> 500 nM"
>>> result("O=C(c1cc(O)cs1)N1CCN(c2ncnc3[nH]ccc23)CC12CC2")
"< 100 nM"
>>> result("CC(C)(C#N)C(=O)N1[C@@H]2CC[C@@H]1CN(c1ncnc3[nH]ccc13)C2")
"> 500 nM"
>>> result("N#CCc1ccc(C(=O)N2CCN(c3ccnc4[nH]ccc34)CC23CC3)cc1")
"> 500 nM"

Take each entry in turn and give its EC50.
1. N#CCOc1ccc(C(=O)N2[C@@H]3CC[C@@H]2CN(c2ncnc4[nH]ccc24)C3)cc1
2. O=C(c1ccccn1)N1CCN(c2ccnc3[nH]ccc23)CC12CC2
3. CCCc1cc(C(=O)N2CCN(c3ncnc4[nH]ccc34)CC23CC3)cs1
4. O=C(c1cc2cccc(F)c2[nH]1)N1CCN(c2ncnc3[nH]ccc23)CC12CC2
5. COc1cnc2[nH]ccc2c1N1CCN(C(=O)c2cc3ccccc3s2)C2(CC2)C1
6. NS(=O)(=O)c1ccc(C(=O)NCC(=O)N2CCN(c3ncnc4[nH]ccc34)CC23CC3)cc1
7. COc1cnc2[nH]ccc2c1N1CCN(C(=O)c2cc3ccccc3[nH]2)C2(CC2)C1
8. N#CCOc1cccc(C(=O)N2[C@@H]3CC[C@@H]2CN(c2ncnc4[nH]ccc24)C3)c1

Output:
["> 500 nM", "> 500 nM", "100 to 500 nM", "100 to 500 nM", "> 500 nM", "< 100 nM", "> 500 nM", "> 500 nM"]

Take each entry in turn and give its EC50.
1. COc1cnc2[nH]ccc2c1N1CCN(C(=O)Cc2ccc(C#N)cc2)C2(CC2)C1
2. NS(=O)(=O)c1ccc(CCC(=O)N2CCN(c3ncnc4[nH]ccc34)CC23CC3)cc1

Output:
["> 500 nM", "< 100 nM"]

Take each entry in turn and give its EC50.
1. CCCS(=O)(=O)Nc1ccc(C(=O)N2CCN(c3ncnc4[nH]ccc34)CC23CC3)cc1
2. Nc1nc(N2CCN(C(=O)Cc3ccc(C(F)(F)F)cc3)C3(CC3)C2)c2cc[nH]c2n1
3. Cc1ccc2sc(C(=O)N3CCN(c4ccnc5[nH]ccc45)CC34CC4)cc2c1
4. N#CCCCC(=O)N1[C@@H]2CC[C@@H]1CN(c1ncnc3[nH]ccc13)C2

Output:
1. 100 to 500 nM
2. > 500 nM
3. > 500 nM
4. > 500 nM

Take each entry in turn and give its EC50.
1. Cc1c[nH]c2ncnc(N3CCN(C(=O)c4cnccn4)C4(CC4)C3)c12
2. O=C(c1cc2c(F)cccc2[nH]1)N1CCN(c2ncnc3[nH]ccc23)CC12CC2

Output:
["> 500 nM", "100 to 500 nM"]

---

Would you kindly list pEC50 for each of these molecules?
Target: JAK2 (catalytic domain, His-tag) (Homo sapiens, UniProt O60674)
Construct: All four purified enzymes contain only the catalytic domain; His (N); purchased Carna Biosciences, Inc; host or cells: baculovirus expression system
Sequence (O60674 849-1124 limits assumed): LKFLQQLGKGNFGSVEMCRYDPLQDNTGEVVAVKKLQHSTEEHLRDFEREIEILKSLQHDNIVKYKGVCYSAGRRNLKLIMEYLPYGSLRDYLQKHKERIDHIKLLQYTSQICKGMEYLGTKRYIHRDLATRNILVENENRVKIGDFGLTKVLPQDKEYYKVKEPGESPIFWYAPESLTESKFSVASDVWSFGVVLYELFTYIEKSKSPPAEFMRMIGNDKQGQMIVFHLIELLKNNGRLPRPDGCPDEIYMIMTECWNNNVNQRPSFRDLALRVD
Assay: JAK kinase assay (HTRF, phosphorylation of TK substrate-biotin), JAK2
Type: biochemical
Details: HTRF assay, ATP at Km (4 μM); read-out: JAK2 kinase inhibitory activity (EC50 indicator)
pEC50: −log10 of the molar value.

Below: 2 molecules and their reported pEC50.
>>> result("O=C(Cc1cc(Br)cs1)N1CCN(c2ncnc3[nH]ccc23)CC12CC2 [Example 387]")
"> 7.00"
>>> result("Cc1c[nH]c2ncnc(N3CCN(C(=O)CCCC#N)C4(CC4)C3)c12 [Example 332]")
"< 6.30"

Take each entry in turn and give its pEC50.
1. O=C(c1ccc(S(=O)(=O)CCO)cc1)N1CCN(c2ncnc3[nH]ccc23)CC12CC2 [Example 406]
2. Cc1ccsc1C(=O)N1[C@@H]2CC[C@@H]1CN(c1ncnc3[nH]ccc13)C2 [Example 243]

Output:
1: > 7.00; 2: > 7.00

Take each entry in turn and give its pEC50.
1. COc1cnc2[nH]ccc2c1N1CCN(C(=O)c2csc3ccccc23)C2(CC2)C1 [Example 289]
2. NS(=O)(=O)c1ccc(C(=O)NCC(=O)N2CCN(c3ncnc4[nH]ccc34)CC23CC3)cc1 [Example 410]
3. Cc1ccc2sc(C(=O)N3CCN(c4ncnc5[nH]ccc45)CC34CC4)cc2c1 [Example 297]
4. O=C(c1ccccc1)N1[C@@H]2CC[C@@H]1CN(c1ncnc3[nH]ccc13)C2 [Example 240]

Output:
1: 6.30 to 7.00; 2: > 7.00; 3: > 7.00; 4: > 7.00

Take each entry in turn and give its pEC50.
1. O=C(c1nsc2cc(Br)ccc12)N1[C@@H]2CC[C@@H]1CN(c1ncnc3[nH]ccc13)C2 [Example 360]
2. O=C(c1cccc(OC(F)(F)F)c1)N1CCN(c2ccnc3[nH]ccc23)CC12CC2 [Example 229]
3. N#CCCC(=O)N1CCN(c2ncnc3[nH]cc(Cl)c23)CC12CC2 [Example 325]
4. COc1ncccc1C(=O)N1CCN(c2ncnc3[nH]ccc23)CC12CC2 [Example 216]

Output:
["6.30 to 7.00", "6.30 to 7.00", "6.30 to 7.00", "6.30 to 7.00"]

Take each entry in turn and give its pEC50.
1. O=C(c1cc2cccc(F)c2[nH]1)N1CCN(c2ncnc3[nH]ccc23)CC12CC2 [Example 362]
2. N#CCc1ccc(CC(=O)N2[C@@H]3CC[C@@H]2CN(c2ncnc4[nH]ccc24)C3)cc1 [Example 347]

Output:
["> 7.00", "6.30 to 7.00"]

---

Molecular target: JAK3 (catalytic domain, His-tag) (Homo sapiens, UniProt P52333)
Construct: All four purified enzymes contain only the catalytic domain; His (N); purchased Carna Biosciences, Inc; host or cells: baculovirus expression system
Sequence (P52333 822-1111 limits assumed): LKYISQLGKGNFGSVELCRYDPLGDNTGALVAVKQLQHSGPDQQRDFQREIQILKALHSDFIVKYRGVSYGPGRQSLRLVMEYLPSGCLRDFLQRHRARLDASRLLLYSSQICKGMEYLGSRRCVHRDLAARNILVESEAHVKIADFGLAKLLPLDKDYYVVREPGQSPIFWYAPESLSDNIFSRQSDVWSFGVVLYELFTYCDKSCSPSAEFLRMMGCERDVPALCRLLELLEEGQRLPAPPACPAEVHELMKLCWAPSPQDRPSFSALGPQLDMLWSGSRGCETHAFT
Assay: JAK kinase assay (HTRF, phosphorylation of TK substrate-biotin), JAK3
Assay type: biochemical
Settings: HTRF assay, ATP at Km (2 μM); read-out: JAK3 kinase inhibitory activity (EC50 indicator)
pEC50: −log10 of the molar value.
quantity: pEC50

Below: 4 compounds and their reported pEC50.
>>> result("O=C(c1ccc(S(=O)(=O)NCC2CCCO2)cc1)N1CCN(c2ncnc3[nH]ccc23)CC12CC2 (stereo not shown) [Example 394]")
"6.30 to 7.00"
>>> result("N#CCCCC(=O)N1CCN(c2nc(N)nc3[nH]ccc23)CC12CC2 [Example 310]")
"> 7.00"
>>> result("COc1cnc2[nH]ccc2c1N1CCN(C(=O)c2csc3ccccc23)C2(CC2)C1 [Example 289]")
"6.30 to 7.00"
>>> result("N#CCc1ccc(C(=O)N2CCN(c3ccnc4[nH]ccc34)CC23CC3)cc1 [Example 230]")
"6.30 to 7.00"

Take each entry in turn and give its pEC50.
1. O=C(c1cccc(OC(F)(F)F)c1)N1[C@@H]2CC[C@@H]1CN(c1ncnc3[nH]ccc13)C2 [Example 244]
2. Cc1cncc(C(=O)N2CCN(c3ncnc4[nH]ccc34)CC23CC3)n1 [Example 418]
3. NS(=O)(=O)c1cccc(C(=O)N2CCN(c3ncnc4[nH]ccc34)CC23CC3)c1 [Example 371]

Output:
["> 7.00", "> 7.00", "> 7.00"]

The reported numbers originate from patent US9346809B2.
